- tgt: T1, ActRIIB-Fc homodimer (UniProt Q13705 19-137)
- T1 construct: extracellular domain; also called ActRIIB homodimer
- T1 sequence (looked up): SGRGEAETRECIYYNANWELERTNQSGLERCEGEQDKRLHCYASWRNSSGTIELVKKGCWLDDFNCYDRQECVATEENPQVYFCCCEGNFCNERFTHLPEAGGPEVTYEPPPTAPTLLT
- measurement notes: Biacore SPR
Let's look at some binders and their measured log10 kon.
The figures below represent log10 of kon, where kon is stated in M⁻¹ s⁻¹.

Some solved cases for reference:
binder	reported
GDF11 (ligand, UniProt O95390 299-407, looked up, also called BMP11) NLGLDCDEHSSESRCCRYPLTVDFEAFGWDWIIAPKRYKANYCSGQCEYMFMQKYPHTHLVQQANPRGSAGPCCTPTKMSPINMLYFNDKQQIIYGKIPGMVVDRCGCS	7.98
GDF3 (ligand, UniProt Q9NR23 251-364, looked up) AAIPVPKLSCKNLCHRHQLFINFRDLGWHKWIIAPKGFMANYCHGECPFSLTISLNSSNYAFMQALMHAVDPEIPQAVCIPTKLSPISMLYQDNNDNVILRHYEDMVVDECGCG	6.15
BMP9 (ligand, UniProt Q9UK05 320-429, looked up, also called GDF2) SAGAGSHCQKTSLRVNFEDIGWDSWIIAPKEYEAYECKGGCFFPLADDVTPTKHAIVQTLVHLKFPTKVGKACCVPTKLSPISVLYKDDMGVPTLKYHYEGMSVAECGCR	8.08
activin B (ligand, UniProt P09529 293-407, looked up) GLECDGRTNLCCRQQFFIDFRLIGWNDWIIAPTGYYGNYCEGSCPAYLAGVPGSASSFHTAVVNQYRMRGLNPGTVNSCCIPTKLSTMSMLYFDDEYNIVKRDVPNMIVEECGCA	7.18
BMP10 (ligand, UniProt O95393 317-424, looked up) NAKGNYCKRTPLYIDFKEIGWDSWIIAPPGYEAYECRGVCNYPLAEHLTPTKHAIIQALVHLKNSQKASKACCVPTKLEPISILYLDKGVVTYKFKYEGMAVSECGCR	6.77

Continue with the binder presented below.
Form field log10 kon, entry activin A (ligand, UniProt P08476 311-426, looked up) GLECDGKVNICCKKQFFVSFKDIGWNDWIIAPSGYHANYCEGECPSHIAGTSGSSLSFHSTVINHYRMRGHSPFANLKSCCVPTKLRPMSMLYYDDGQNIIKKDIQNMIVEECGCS : 7.11
